# System: NCI-H522
# ASSAY DETAILS: NCI tumour cell line growth inhibition, 48 h
Activity calls are given as the source filed them. No stated cut-off is given here; in the data, active = GI50 up to about 1.1 µM and inactive = higher.
QUANTITY NAME: GI50

CC1(C)C(=O)N(O)C(C)(C)N1O: > 10 µM (inactive)
O=C(c1ccccc1)C1C(c2ccccc2[N+](=O)[O-])N1C1CCCCC1 (stereo unspecified): 2.11 µM (inactive)
CN1CCN(C(=S)N(C(=O)c2ccc(Cl)cc2)C2CCCCC2)CC1: > 100 µM (inactive)
Nc1c(Br)cc(-c2cc(Br)c(N)c(Br)c2)cc1Br: > 100 µM (inactive)
COc1ccc(NC(=O)CC/C(CC(=O)C(C)(C)C)=N\NC(=O)C(=O)NN)cc1: 44.2 µM (inactive)
CCOC(=N)CC(=O)Nc1cccc(Cl)c1: > 100 µM (inactive)

====

Recorded GI50, one value per entry.
# Test system: SF-539
# ASSAY DETAILS: NCI tumour cell line growth inhibition, 48 h
Activity calls are given as the source filed them. No stated cut-off is given here; in the data, active = GI50 up to about 1.1 µM and inactive = higher.
QUANTITY NAME: GI50

CC(C)(C)c1cc(C2c3cc4c(cc3OC(O)(CO)C2C(=O)O)OCO4)cc(C(C)(C)C)c1O.CC(C)(C)c1cc(C2c3cc4c(cc3OC3(O)COC(=O)C23)OCO4)cc(C(C)(C)C)c1O (stereo not given): 12.5 µM (inactive)
O=[N+]([O-])c1ccc(CNC2=NNS(=O)(=O)c3ccccc32)cc1: > 100 µM (inactive)
CCOC(=O)C(SCCO)C(C(=O)OCC)n1cnc2c(N)ncnc21 (stereo not given): 16.3 µM (inactive)
O=C1C=CC(=O)N1c1ccc(I)cc1: 22.5 µM (inactive)
CN(C)c1cc2ccccc2oc1=O: > 100 µM (inactive)
OCC1(CNc2cc(Cl)ncn2)CCC1: > 100 µM (inactive)
CC1(C)OCC2(CO1)CSCCCSCC1(COC(C)(C)OC1)CSCCCSC2: > 100 µM (inactive)
CC1CCCc2c(CC3CC(=O)NC(=O)C3)n[nH]c21 (stereo not given): > 100 µM (inactive)
C/C(=N\Nc1nc2ccccc2o1)c1cc2ccccc2cn1: < 0.0281 µM (active)
CC(=O)OC1=CC2=CC[C@H]3[C@@H]4CCC(=O)[C@@]4(C)CC(=O)[C@]3(S)[C@@]2(C)CC1: 20 µM (inactive)

====

# System: RXF 393
# ASSAY DETAILS: NCI tumour cell line growth inhibition, 48 h
Active and inactive are the calls of the source. Rule as the data show it: active = GI50 up to about 1.1 µM and inactive = higher.
Recorded GI50, one value per entry.
QUANTITY NAME: GI50

COC(=O)C1=C(O)C(C(=O)OC)[C@]2(O)[C@H](C(=O)OC)[C@H]1C[C@@H](c1cccc(OC)c1)[C@H]2C(=O)OC (stereo partly specified): 18.8 µM (inactive)
CCCC/C=C1/CCC(CN(C)C)C1=O (stereo unspecified): 1.77 µM (inactive)
Cn1cnc([N+](=O)[O-])c1[Se]c1ncnc2nc[nH]c12: 15.5 µM (inactive)
O=C1C(=O)N(C(=O)c2ccc(Cl)c(Cl)c2)c2ccc(Cl)cc21: > 100 µM (inactive)
COC(=O)C(=O)C(C(=O)C(=O)Nc1cc(C)ccc1C)c1nc2ccc(C(=O)c3ccccc3)cc2nc1O (stereo unspecified): 46.3 µM (inactive)
O=C1c2ccccc2C(=O)c2[nH]c(Cc3ccc(F)cc3)nc21: 6.97 µM (inactive)
O=C1Sc2cc3ccccc3cc2C(=O)Sc2cc3ccccc3cc21: 17.7 µM (inactive)
O=c1[nH]c(=O)n(C2CC(O)C(CO)O2)cc1I (stereo unspecified): > 100 µM (inactive)
Cc1cccc(-c2nnc3s/c(=C\c4ccc5c(c4)OCO5)c(=O)n23)c1: > 100 µM (inactive)
CC(=O)Nc1c(C(=N)C#N)ncn1CCO: > 100 µM (inactive)
CC1(C)O[C@H](C(=O)O)[C@@H](C(=O)O)O1: > 100 µM (inactive)

====

# System: TK-10
# ASSAY DETAILS: NCI tumour cell line growth inhibition, 48 h
Activity calls are given as the source filed them. No stated cut-off is given here; in the data, active = GI50 up to about 1.1 µM and inactive = higher.
Labels: yes (active), no (inactive)

COc1cc(/C=C/C(=N\NS(=O)(=O)c2ccc(C)cc2)c2sc(NNC(C)=O)nc2C)ccc1O: no
COc1cc2c(cc1OCCCCN1CCN(CCCCOc3cc4c(cc3OC)C(=O)N3CCC[C@H]3C=N4)CC1)N=C[C@@H]1CCCN1C2=O: yes
O=C1C(=O)N(C(=O)c2ccc(Cl)c(Cl)c2)c2ccc(Cl)cc21: no
O=C(OCC1OC2OC(c3ccccc3)(n3ccc4c([N+](=O)[O-])ccnc43)OC2C1OC(=O)c1ccccc1)c1ccccc1 (stereo unspecified): no
Nc1ccc2ncc(NCc3ccc(F)cc3)nc2c1: no
CC1CCCP(=O)(c2ccccc2)CCC1 (stereo unspecified): no
O=c1[nH]cnc2c(COCCO)c[nH]c12: no
Cn1cnc([N+](=O)[O-])c1[Se]c1ncnc2nc[nH]c12: no
C[N+](C)(CCNC(=O)c1cccc2cc3ccccc3nc12)Cc1ccc([N+](=O)[O-])cc1: no
CC(C)C(/C=C/c1ccc(Cl)c(Cl)c1)=N\NC(=O)N/N=C(/C=C/c1ccc(Cl)c(Cl)c1)C(C)C: no
CN(C)CC1CCC(CN(C)C)C1=NO (stereo unspecified): no
Oc1ccc(/C=C\c2nnc(/C=C\c3ccc(O)c(O)c3)s2)cc1O: no
Cc1cccc(C)c1NC(=O)C1C(=O)N(c2c(C)cccc2C)C(=O)/C1=N\N (stereo unspecified): no
NC(C(=O)O)C(N)C(=O)O (stereo unspecified): no
O=C1/C(=C/c2ccc(OC(=O)c3ccc(Cl)cc3)cc2)CCC/C1=C\c1ccc(OC(=O)c2ccc(Cl)cc2)cc1: no
O=S1(=O)CCC2=CC(C(F)(F)F)=CC(C(F)(F)F)=CN21: yes
CCCCCNC(=O)CCCCCCCCCCCNC(=O)CCCCCCCCCCN1C=CC(=CC=C2C=CC(=O)C=C2)C=C1: no
CN(C)CCNCc1ccc2c(-c3ccccc3)nc3cc(Cl)c(Cl)cc3n12: no
N#C/C(=C\c1ccc(O)c(O)c1)C(N)=O: no
N/C(=N\Nc1ccc(Cl)cc1)c1cnccn1: no
CCOC(=O)C(SCCO)C(C(=O)OCC)n1cnc2c(N)ncnc21 (stereo unspecified): no

====

# Tested on: SNB-75
# ASSAY DETAILS: NCI tumour cell line growth inhibition, 48 h
Calls of active or inactive are those of the source. No stated cut-off is given here; in the data, active = GI50 up to about 1.1 µM and inactive = higher.
Labels: Y for active, N for inactive

CC(C)/C(Cl)=N\OC(=O)Nc1ccccc1F: N
CC[C@@]1(O)C(=O)OCc2c1cc1n(c2=O)Cc2cc3cc(O)ccc3nc2-1 [HYDROXYCAMPTOTHECIN]: Y
O/N=C1/CCCC/C1=C/C=C/c1ccccc1: N
C=C1C2CC(OC(C)=O)C3(C)C(c4ccoc4)OC(=O)[C@@H](O)[C@]13OC1C[C@H](OC(C)=O)C(C)(C)[C@H](CC(=O)OC)[C@]12C (stereo not given in full): N
N=C(N)Nc1nc2cc([N+](=O)[O-])ccc2[nH]1: N
Cc1ccc(SCC(OCn2cnc3c(N)ncnc32)[C@H](C)F)cc1 (stereo not given in full): N
COc1ccc2nc3ccc(OC)cc3c([S+]([O-])Cc3ccccc3)c2c1 (stereo not given): N
CCCCNc1nc2ccccc2c2c1ncn2CC(C)C: N
O=C(c1ccco1)N(C(=S)N1CCN(c2ccccc2)CC1)C1CCCCC1: N
O=[N+]([O-])c1cccnc1-n1cnc2ccccc21: N

====

# Test system: OVCAR-8
# ASSAY DETAILS: NCI tumour cell line growth inhibition, 48 h
The source made the active and inactive calls. Rule as the data show it: active = GI50 up to about 1.1 µM and inactive = higher.
QUANTITY NAME: GI50

CC(C)N1CCOC(c2ccc(O)c(O)c2)C1 (stereo not given): > 100 µM (inactive)
O[C@H]1[C@H](O)[C@H](O)CN2CCC[C@@H](O)[C@H]12: > 100 µM (inactive)
O=C(NCc1ccccc1)c1cnc(Cl)cn1: 52.4 µM (inactive)
Cn1cnc([N+](=O)[O-])c1Sc1nc(N)nc2c1ncn2Cc1ccccc1: 18.1 µM (inactive)
CC(=O)Oc1ccc2c(c1)c1c(OC(C)=O)c3ccccc3c(OC(C)=O)c1n2Cc1cccc(C)c1: 48.6 µM (inactive)
COc1ccc2c(c1)c[n+](C)c1c3cc(OC)c(OC)cc3ccc21: 1.22 µM (inactive)
C/C=C1/CN2[C@@H](C3=C[C@@H]4[C@@H]5N(C3=O)c3ccccc3[C@@]53CCN5C/C(=C/C)[C@@H]4C[C@H]53)C[C@@]34c5ccccc5N5C(=O)CC=C([C@H]1C[C@H]23)[C@H]54: 3.91 µM (inactive)
C=CC(C)(C)c1c(OC)oc2ccc(OC)c(C)c2c1=O: > 100 µM (inactive)
Cc1nc(O)nc2nc3ccc(Cl)cc3c(N(CCO)CCO)c12: > 100 µM (inactive)
O=C(O)C(Cc1ccccc1-c1ccccc1)C(=O)O: > 100 µM (inactive)
